target.or.test.system: NAD-dependent protein deacylase sirtuin-5, mitochondrial (Homo sapiens)
assay.summary: Activation of N-terminal his-tagged human SIRT5 (34 to 302 residues) expressed in Escherichia coli assessed as fold activation at 100 uM using CPS1-succ537 as substrate in presence of NAD+
run.conditions: filed as activator

chemical.structure	fold change (FC)
CCOC(=O)C1=CN(Cc2ccccc2)C=C(C(=O)OCC)C1c1ccc(-c2ccccc2)cc1	2
CCOC(=O)C1=CN(C(=O)c2cnc3ccccc3n2)C=C(C(=O)OCC)C1c1ccccc1	2
CCOC(=O)C1=CN(C(=O)c2ccccc2)C=C(C(=O)OCC)C1c1cccc(OC)c1	2
CCOC(=O)C1=CN(C(=O)c2ccccc2)C=C(C(=O)OCC)C1c1ccccc1OC	2
CCOC(=O)C1=CN(C(=O)c2ccccc2)C=C(C(=O)OCC)C1c1ccc(C)cc1	2

---

target.or.test.system: NAD-dependent protein deacylase sirtuin-5, mitochondrial (Homo sapiens)
assay.summary: Activation of N-terminal his-tagged human SIRT5 (34 to 302 residues) expressed in Escherichia coli assessed as fold activation at 10 to 100 uM using CPS1-succ537 as substrate in presence of NAD+
run.conditions: filed as activator, dose 10-100 µM

chemical.structure	fold change (FC)
CCOC(=O)C1=CN(C(=O)c2cc(OC)c(OC)c(OC)c2)C=C(C(=O)OCC)C1c1ccc(CN2CCN(C)CC2)cc1	2
CCOC(=O)C1=CN(C(=O)c2ccccc2)C=C(C(=O)OCC)C1c1ccco1	2
CCOC(=O)C1=CN(C(=O)c2ccccc2)C=C(C(=O)OCC)C1c1ccsc1	3
CCOC(=O)C1=CN(C(=O)c2cc(OC)c(OC)c(OC)c2)C=C(C(=O)OCC)C1c1cccc(N)c1	3
CCOC(=O)C1=CN(C(=O)c2ccccc2)C=C(C(=O)OCC)C1c1ccoc1	3
CCOC(=O)C1=CN(C(=O)c2cc(OC)c(OC)c(OC)c2)C=C(C(=O)OCC)C1c1ccco1	2
CCOC(=O)C1=CN(C(=O)c2cc(OC)c(OC)c(OC)c2)C=C(C(=O)OCC)C1c1ccoc1	2

---

target.or.test.system: NAD-dependent protein deacetylase sirtuin-1 (Homo sapiens) (UniProt Q96EB6)
Sequence (Q96EB6 whole entry): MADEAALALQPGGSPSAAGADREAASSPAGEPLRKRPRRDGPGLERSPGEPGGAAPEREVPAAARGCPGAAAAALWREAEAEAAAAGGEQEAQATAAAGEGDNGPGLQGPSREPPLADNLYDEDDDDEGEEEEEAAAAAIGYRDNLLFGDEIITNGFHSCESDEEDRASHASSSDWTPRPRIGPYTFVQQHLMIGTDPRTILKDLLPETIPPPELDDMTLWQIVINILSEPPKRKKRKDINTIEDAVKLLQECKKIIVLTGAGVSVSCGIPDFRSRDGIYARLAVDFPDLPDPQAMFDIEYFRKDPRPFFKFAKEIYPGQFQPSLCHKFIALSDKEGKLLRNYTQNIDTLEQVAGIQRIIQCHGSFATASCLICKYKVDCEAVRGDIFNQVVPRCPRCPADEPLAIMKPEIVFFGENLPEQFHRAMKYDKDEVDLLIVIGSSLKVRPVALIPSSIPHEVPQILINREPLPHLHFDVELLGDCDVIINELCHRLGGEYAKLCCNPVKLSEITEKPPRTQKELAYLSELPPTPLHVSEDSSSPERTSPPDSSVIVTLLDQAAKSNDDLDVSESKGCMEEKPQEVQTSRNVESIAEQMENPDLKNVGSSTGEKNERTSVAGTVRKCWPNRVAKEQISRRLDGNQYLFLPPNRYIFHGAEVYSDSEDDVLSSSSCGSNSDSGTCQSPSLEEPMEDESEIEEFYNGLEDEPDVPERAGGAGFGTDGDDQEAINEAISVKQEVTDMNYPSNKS
assay.summary: Activation of N-terminal his-tagged human SIRT1 expressed in Escherichia coli assessed as fold activation at 100 uM using p53-acK381 as substrate in presence of NAD+
run.conditions: filed as activator

chemical.structure	fold change (FC)
CCOC(=O)C1=CN(C(=O)c2cc(OC)c(OC)c(OC)c2)C=C(C(=O)OCC)C1c1cccc(N)c1	4
CCOC(=O)C1=CN(C(=O)c2cc(OC)c(OC)c(OC)c2)C=C(C(=O)OCC)C1c1ccoc1	2.5
CCOC(=O)C1=CN(C(=O)c2cc(OC)c(OC)c(OC)c2)C=C(C(=O)OCC)C1c1ccc(CN2CCN(C)CC2)cc1	2.5
CCOC(=O)C1=CN(C(=O)c2cc(OC)c(OC)c(OC)c2)C=C(C(=O)OCC)C1c1ccco1	2.5
CCOC(=O)C1=CN(C(=O)c2cc(OC)c(OC)c(OC)c2)C=C(C(=O)OCC)C1c1ccsc1	2.5
